Target: T1, human CD20 (human, UniProt P11836 1-297)
T1 sequence (looked up): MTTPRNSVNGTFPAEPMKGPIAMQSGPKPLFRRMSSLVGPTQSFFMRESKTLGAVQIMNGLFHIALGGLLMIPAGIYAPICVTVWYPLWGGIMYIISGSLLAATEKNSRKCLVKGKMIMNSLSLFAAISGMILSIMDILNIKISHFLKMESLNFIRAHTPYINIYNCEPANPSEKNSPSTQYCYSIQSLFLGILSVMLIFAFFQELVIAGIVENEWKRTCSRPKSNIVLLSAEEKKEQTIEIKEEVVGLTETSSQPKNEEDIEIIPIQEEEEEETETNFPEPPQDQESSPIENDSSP
Assay: cell-based or functional assay
assay-metric: EC50 of CDC, WSU-DLCL-2 cells, 5% human complement (µg/mL)

binder	reading-unit	reported-result
chCD20-20 (antibody, V domains shown, Chimeric antibody: murine CD20-20 variable regions with human constant regions (equivalent plasmids to chCD20-4), expressed in HEK-293T; the murine VL/VH entries 7 and 8 are used; also called chimeric CD20-20) VH: QVQLQQSGAELARPGASVKLSCKASGYTFTSYWMHWVKQRPGQGLEWIGAIYPGDGDTRYTQKFKGKATLTADKSSYTAYMQLSSLASEDSAVYYCARSPDFYGSGYDFDYWGQGTTLTVSS VL: DIKMTQSPSSMYTSLGERVTITCKASQDINSFLSWFQQKPGKSPKTLIYRAYRLVDGVPSRFSGSGSGQDYSLTISSLEFEDMGIYYCLQSGAFPLTFGAGTKLELKR	µg/mL	0.084
chCD20-4 (antibody, V domains shown, Chimeric antibody: murine CD20-4 variable regions cloned in frame with human constant regions (plasmids pchCD20-4HCN and pchCD20-4LCZ), expressed in HEK-293T; the murine VL/VH entries 5 and 6 are used; a huIgG1 isotype control was used beside it; also called chimeric CD20-4) VH: EVKVEESGGGLVKTGGSMKLSCVASGFSFNNYWMNWVRQSPEKGLEWVAEIRLKSNNYATHYVESVKGRFTISRDDSKSSVYLQMNNLRAEDTGIYYCTGWDDYAMDHWGQGISVTVSS VL: DIVMTQSQKFMSTSVGDRVSVNCKASQNVGTNVAWYQQKPRQSPKGLIYSASFRYSGVPDRFTGSGSGTDFTLTIFNVQSDDLAEYFCQQYNNYPLTFGGGTKLEIKR	µg/mL	0.027
